- subject-of-test: nanoKAZ luciferase (Oplophorus gracilirostris, UniProt Q9GV45, A31E/A60N/A81I/F95D/I117V/K70R/L54V/L99Q/M102K/N193R/P142E/Q151K/Q38R/Q45L/V71I/Y165I)
- Construct: luciferase catalytic domain (nanoKAZ, 19 kDa) from the Oplophorus-derived luciferase; host or cells: cell-free: 1-Step Human Coupled IVT Kit, pT7CFE1-based vector
- Sequence (Q9GV45 other isoform, or with tags, fused parts or gaps with the stated changes): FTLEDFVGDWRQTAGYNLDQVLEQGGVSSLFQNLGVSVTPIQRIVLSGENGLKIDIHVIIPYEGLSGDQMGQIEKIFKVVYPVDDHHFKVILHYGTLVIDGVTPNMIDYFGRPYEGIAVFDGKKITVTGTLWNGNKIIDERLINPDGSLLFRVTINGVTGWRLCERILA
- test-description: In vitro bioluminescence screening of imidazo[1,2-a]pyrazin-3(7H)-ones with nanoKAZ expressed in vitro (96-well luminometer, 2 h kinetic)
- Assay type: biochemical
- experimental-setup: Table 1; furimazine = 1
y if V4: area under the curve for two hours, normalized using furimazine (Q-1) as a reference is below 1. n if not; exact matches included in n.

Take a look at these entries with their results.
Cc1cccc(Cc2nc3c(Cc4ccccc4)[nH]c(-c4ccccc4)cn-3c2=O)c1 | y
O=c1c(Cc2ccco2)nc2c(Cc3ccccc3F)[nH]c(-c3ccccc3)cn1-2 | n
O=c1c(Cc2cccc(F)c2)nc2c(Cc3ccccc3)[nH]c(-c3ccccc3)cn1-2 | y
O=c1c(Cc2ccc(C3CC3)o2)nc2c(Cc3ccccc3)[nH]c(-c3ccccc3)cn1-2 | y
O=c1c(Cc2ccccc2)nc2c(Cc3ccccc3)[nH]c(-c3c(F)cccc3F)cn1-2 | y
CCc1ccc(Cc2nc3c(Cc4ccccc4)[nH]c(-c4ccccc4)cn-3c2=O)o1 | n
O=c1c(Cc2ccco2)nc2c(Cc3cccc(F)c3)[nH]c(-c3ccccc3)cn1-2 | n
Cc1cccc(Cc2nc3c(Cc4cccc(F)c4)[nH]c(-c4ccccc4)cn-3c2=O)c1 | n

QUERY: Take the compound Cc1ccc(Cc2nc3c(Cc4ccccc4)[nH]c(-c4ccccc4F)cn-3c2=O)o1 and say whether its V4: area under the curve for two hours, normalized using furimazine (Q-1) as a reference is less than 1.
RESULT: n
